Every entry's value here was drawn from ChEMBL document CHEMBL1125501.

# target_or_test_system: Mu-type opioid receptor (Rattus norvegicus)
# Sequence (P33535 whole entry): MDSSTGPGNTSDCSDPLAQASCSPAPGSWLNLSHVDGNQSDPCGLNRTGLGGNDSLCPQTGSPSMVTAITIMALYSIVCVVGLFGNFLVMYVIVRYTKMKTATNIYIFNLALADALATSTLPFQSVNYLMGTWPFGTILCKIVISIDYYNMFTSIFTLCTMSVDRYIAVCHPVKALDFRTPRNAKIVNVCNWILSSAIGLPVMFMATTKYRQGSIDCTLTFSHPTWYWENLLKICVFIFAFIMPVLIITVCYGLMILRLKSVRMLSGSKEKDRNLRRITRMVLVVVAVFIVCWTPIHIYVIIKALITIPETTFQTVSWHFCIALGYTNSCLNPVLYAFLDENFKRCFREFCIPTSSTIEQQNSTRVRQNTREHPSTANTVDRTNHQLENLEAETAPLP
# Format: cell membranes, Brain, Brain membranes
pIC50: −log10 of the molar value.
This listing pairs compounds with measured pIC50.

smiles_string | pIC50
Oc1ccc2c3c1O[C@H]1[C@@H](I)CC[C@@]4(O)[C@@H](C2)N(CC2CC2)CC[C@]314 | 8.36
Oc1ccc2c3c1O[C@H]1[C@@H](Br)CC[C@@]4(O)[C@@H](C2)N(CC2CC2)CC[C@]314 | 8.50
Oc1ccc2c3c1O[C@H]1[C@H](I)CC[C@@]4(O)[C@@H](C2)N(CC2CC2)CC[C@]314 | 9.11
Oc1ccc2c3c1O[C@H]1[C@H](F)CC[C@@]4(O)[C@@H](C2)N(CC2CC2)CC[C@]314 | 8.05

---

# target_or_test_system: Delta-type opioid receptor (Rattus norvegicus, UniProt P33533)
# Sequence (P33533 whole entry): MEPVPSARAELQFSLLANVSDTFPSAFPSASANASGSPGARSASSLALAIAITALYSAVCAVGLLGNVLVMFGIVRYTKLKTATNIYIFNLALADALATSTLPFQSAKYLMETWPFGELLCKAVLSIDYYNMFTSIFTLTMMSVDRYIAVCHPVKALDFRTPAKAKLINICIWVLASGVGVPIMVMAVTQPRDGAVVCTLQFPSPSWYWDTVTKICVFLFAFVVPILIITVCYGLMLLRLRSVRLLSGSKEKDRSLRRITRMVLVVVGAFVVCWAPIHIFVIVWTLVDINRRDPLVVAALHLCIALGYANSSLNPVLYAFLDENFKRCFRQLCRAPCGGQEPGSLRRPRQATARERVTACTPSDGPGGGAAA
# test_summary: In vito concentration required to displace [3H]DADLE (Kd = […] and concentration is […]) from high affinity delta-site in rat brain membranes.
# Type: cell membranes
pIC50: −log10 of the molar value.
This listing pairs molecules with measured pIC50.

smiles_string | pIC50
Oc1ccc2c3c1O[C@H]1[C@H](F)CC[C@@]4(O)[C@@H](C2)N(CC2CC2)CC[C@]314 | 6.57
Oc1ccc2c3c1O[C@H]1[C@@H](Br)CC[C@@]4(O)[C@@H](C2)N(CC2CC2)CC[C@]314 | 8.37
Oc1ccc2c3c1O[C@H]1[C@H](I)CC[C@@]4(O)[C@@H](C2)N(CC2CC2)CC[C@]314 | 7.59

---

# target_or_test_system: Delta-type opioid receptor (Rattus norvegicus)
# test_summary: In vito concentration required to displace [3H]DADLE (Kd = […] and concentration is […]) from high affinity delta-site in rat brain membranes.
# Format: cell membranes
pKi: −log10 of the molar value.
This listing pairs molecules with measured pKi.
assay_metric: pKi

smiles_string | assay_metric | quantitative_readout
Oc1ccc2c3c1O[C@H]1[C@@H](Br)CC[C@@]4(O)[C@@H](C2)N(CC2CC2)CC[C@]314 | pKi | 8.71
Oc1ccc2c3c1O[C@H]1[C@H](F)CC[C@@]4(O)[C@@H](C2)N(CC2CC2)CC[C@]314 | pKi | 6.91

---

# target_or_test_system: Mu-type opioid receptor (Rattus norvegicus)
# Type: cell membranes, Brain, Brain membranes
pKi: −log10 of the molar value.

smiles_string | pKi
Oc1ccc2c3c1O[C@H]1[C@@H](Br)CC[C@@]4(O)[C@@H](C2)N(CC2CC2)CC[C@]314 | 8.92
Oc1ccc2c3c1O[C@H]1[C@@H](I)CC[C@@]4(O)[C@@H](C2)N(CC2CC2)CC[C@]314 | 8.78
Oc1ccc2c3c1O[C@H]1[C@H](F)CC[C@@]4(O)[C@@H](C2)N(CC2CC2)CC[C@]314 | 8.47
Oc1ccc2c3c1O[C@H]1[C@H](I)CC[C@@]4(O)[C@@H](C2)N(CC2CC2)CC[C@]314 | 9.54

---

# target_or_test_system: UniProtKB P41144
# Sequence (P41144 whole entry): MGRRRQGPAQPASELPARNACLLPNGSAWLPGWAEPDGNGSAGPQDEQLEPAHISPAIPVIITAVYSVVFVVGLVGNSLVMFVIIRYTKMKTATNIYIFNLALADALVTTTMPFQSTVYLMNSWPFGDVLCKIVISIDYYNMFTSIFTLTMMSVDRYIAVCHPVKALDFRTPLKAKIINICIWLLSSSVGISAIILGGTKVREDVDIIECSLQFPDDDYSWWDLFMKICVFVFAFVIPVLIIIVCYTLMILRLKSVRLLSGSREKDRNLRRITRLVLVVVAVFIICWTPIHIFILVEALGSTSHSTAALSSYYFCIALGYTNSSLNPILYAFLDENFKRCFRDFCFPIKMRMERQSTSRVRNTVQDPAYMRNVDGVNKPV
# test_summary: In vito concentration required to displace 9 (Kd = […] and concentration is 1.8 nM) from opioid receptor kappa 2 in guinea brain membranes.
# Format: cell membranes

smiles_string | unit_abbrev | Ki
Oc1ccc2c3c1O[C@H]1[C@H](I)CC[C@@]4(O)[C@@H](C2)N(CC2CC2)CC[C@]314 | nM | 2.73
